# subject of test: Cholinesterase (Homo sapiens, UniProt P06276)
# Sequence (P06276 whole entry): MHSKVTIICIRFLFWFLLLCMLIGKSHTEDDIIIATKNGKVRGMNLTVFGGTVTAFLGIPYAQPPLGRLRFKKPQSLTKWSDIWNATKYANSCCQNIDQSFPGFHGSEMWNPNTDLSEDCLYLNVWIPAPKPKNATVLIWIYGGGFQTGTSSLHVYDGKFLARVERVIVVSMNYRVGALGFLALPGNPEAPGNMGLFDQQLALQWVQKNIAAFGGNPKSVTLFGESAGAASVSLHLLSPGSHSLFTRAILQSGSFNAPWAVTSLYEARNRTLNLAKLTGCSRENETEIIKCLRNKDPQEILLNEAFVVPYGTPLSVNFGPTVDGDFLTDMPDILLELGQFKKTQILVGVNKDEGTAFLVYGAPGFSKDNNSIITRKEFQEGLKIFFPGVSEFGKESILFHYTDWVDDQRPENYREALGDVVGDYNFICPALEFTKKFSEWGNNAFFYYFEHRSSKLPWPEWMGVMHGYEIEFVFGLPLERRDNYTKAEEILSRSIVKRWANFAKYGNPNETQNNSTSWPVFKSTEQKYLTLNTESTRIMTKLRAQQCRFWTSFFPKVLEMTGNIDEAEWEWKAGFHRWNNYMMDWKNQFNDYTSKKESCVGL

smiles string | unit name | Kd
Nc1nonc1-c1nc2ccccc2n1CC(=O)Nc1cc([N+](=O)[O-])cc([N+](=O)[O-])c1 | nM | 3.09

----------
The following compounds are listed with their measured MRT inf values.
# protocol details: MRT infinity in Sprague-Dawley rat at 10 mg/kg, iv measured upto 1440 mins by LC/MS/MS analysis
# Format: ADME, organism-based
# condition context: in vivo
quantity: MRT inf (h)

smiles string | value
N#Cc1cc(Br)cc(NC(=O)Cn2c(-c3nonc3N)nc3ccccc32)c1 | 14.1
Nc1nonc1-c1nc2ccccc2n1CC(=O)Nc1cnc2ccccc2c1 | 3.11
